Each entry below carries its reported growth inhibition.
experiment: NCI Yeast Anticancer Drug Screen. Data for the cln2 rad14 strain (AID 165);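 further: 0% = growth equal to vehicle treated cultures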; details: S. cerevisiae cln2 rad14 strain, at 50.0 µM, hits give high values
Compounds without any hit were thinned out: in the full panel of roughly 79,000, 15% have a hit. Where a SMILES comes first, the peptide text is derived from it. The star is where a group is joined. Trt = c1ccc(C(c2ccccc2)(c2ccccc2)*)cc1; Cbz = O=C(OCc1ccccc1)*
readout-label: growth inhibition (%)

{"compound": "COc1cc2c(cc1O)C1C(O)C(O)C=C3CCN(C2)C31 (centres undefined)", "val": 84}
{"compound": "Cc1cc(C)c(S(=O)(=O)n2ccnc2)c(C)c1", "val": 6.55}
{"compound": "CCCCCCN(CCCCCC)CCCC(O)c1cccc2ccccc12 (centres undefined)", "val": 99.2}
{"compound": "CC(=O)OC(OC(C)=O)c1ccc([N+](=O)[O-])s1", "val": 99.1}
{"compound": "CC(=O)Sc1ccc(Br)cc1", "val": -2.05}
{"compound": "Cc1cc(N/N=C/c2ccc([N+](=O)[O-])o2)c2cc3c(cc2n1)OCO3", "val": 92.7}
{"compound": "O=C(COC(=O)c1ccc(O)cc1)c1ccc(-c2ccccc2)cc1", "val": 28.1}
{"compound": "CCOC(=O)c1ccc(N=Cc2cc(Cl)cc(Cl)c2O)cc1", "val": 78.9}
{"compound": "C=CCCCCCCCCC(=O)ON(Cc1ccc(O)c(OC)c1)C(=O)C(F)(F)F", "val": 85.5}
{"compound": "CN1CCN(CC(C(=O)O)(c2ccccc2)c2ccccc2)CC1", "val": 14.2}
{"compound": "COC(OC)(c1ccccc1)C(Br)Br", "val": 90.4}
{"compound": "Cc1cc(/C=N/Nc2ccc3cccc(O)c3n2)c(O)c2ncccc12", "val": 98.7}
{"compound": "COc1ccc2c(Cc3cc(Cl)ccc3O)cncc2c1O", "val": 40}
{"compound": "C1=CN2C(c3ccccc3)=NN(c3ccccc3)[C@@H]2c2ccccc21", "val": 27.8}
{"compound": "CCCCCCCOC(=O)CSC#N", "val": 98.5}
{"compound": "CC(C)=CC[P+](CCCCCC[P+](CC=C(C)C)(c1ccccc1)c1ccccc1)(c1ccccc1)c1ccccc1", "val": 4.75}
{"compound": "Fc1cccc(CSc2ncnc3c2ncn3C2CCCS2)c1 (centres undefined)", "val": 82}
{"compound": "Cc1ccc(NCCNCCO)c2c(=O)c3ccccc3sc12", "val": 99.4}
{"compound": "CC(=O)N(C1=CC(=O)c2ccccc2C1=O)c1ccc(Cl)cc1", "val": 90.8}
{"compound": "CCCCCCCCCCCC(O)=C1C(=O)CC(O)CC1=O (centres undefined)", "val": 90.3}
{"compound": "CC(C)C1(Cl)CCC2C3(C)CCCC(C)(C(=O)O)C3CC(Cl)C2(Cl)C1Cl (centres undefined)", "val": 95.8}
{"compound": "S=C(Nc1ccccc1)N(Cc1ccccc1)c1ccccc1", "val": 32.5}
{"compound": "CCCCCCC(C)S(=O)(=O)c1ccc(C)cc1 (centres undefined)", "val": 5.1}
{"compound": "CNC(=O)N(C1=NCC(C)S1)c1ccc(C)c(C)c1 (centres undefined)", "val": 57.2}
{"compound": "CC(C)(C)OC(=O)NCCNC(=O)CN(CC(=O)O)C1CCCCC1N(CC(=O)O)CC(=O)O (centres undefined)", "val": 15.9}
{"compound": "CCn1c2ccc([N+](=O)[O-])cc2c2c([N+](=O)[O-])c(-n3cccc3)ccc21", "val": 8.9}
{"compound": "OC(Cc1ccc(Br)cc1)CN1CCC(c2ccccc2)CC1 (centres undefined)", "val": 78.9}
{"compound": "Clc1ccc(CNc2ccc(Cl)c(Cl)c2)cc1", "val": 97.7}
{"compound": "OCCc1cccc2ccc3ccccc3c12", "val": 88.2}
{"compound": "CCCCCCCCCCCN1C(=O)c2ccccc2S1(=O)=O", "val": 58.8}
{"compound": "CCOC(=O)CCC(NC(=O)C(CSC(c1ccccc1)(c1ccccc1)c1ccccc1)NC(=O)OCc1ccccc1)C(=O)NC(CCC(=O)OCC)C(=O)NC(CCC(=O)OCC)C(=O)NC(CCC(=O)OCC)C(=O)NC(CSC(c1ccccc1)(c1ccccc1)c1ccccc1)C(=O)OC (centres undefined) (Cbz-C(Trt)E(OEt)E(OEt)E(OEt)E(OEt)C(Trt)-OMe; configuration not given here)", "val": 82.3}
{"compound": "C/C(=N\\NC(=S)NC(C)(C)C)c1ccccn1", "val": 89.5}
{"compound": "ClCc1ccc2ccc3ccc(CCl)nc3c2n1", "val": 27.8}
{"compound": "Cc1ccc(S(=O)(=O)c2cc(O)c(O)c3ccc(Br)cc23)cc1", "val": 95.4}
